# test target: GLP-1 receptor (GLP-1R), primary cAMP assay cell line (human, UniProt P43220 24-463)
# method description: cell-based or functional assay
Starred links: 1 amine or outer side, 2 acyl side, 3 side chain; linkers in the order of their positions; H or OH if unused. Non-standard residues stand in square brackets, D forms with d. Groups on a side chain read outwards from the residue. Primed or numbered codes have the meaning given here. No end group written: not given here. *: point of attachment. γGlu = O=C(O)[C@H](CCC(=O)[*:2])N[*:1]; αMeF = C[C@](N)(Cc1ccccc1)C(=O)O; αMeK = C[C@](N)(CCCCN)C(=O)O; Lauroyl = CCCCCCCCCCCC(=O)*; αMeS = C[C@](N)(CO)C(=O)O; PEG2′ = not defined here; Aib = CC(C)(N)C(=O)O
The label True is reserved for cAMP Primary assay EC50, n2 strictly under 0.2 nM; False covers values equal to or above it.

Qu. Here's an entry: H[Aib]EGS[αMeF]TSDK([PEG2′-PEG2′-γGlu-Lauroyl])SSYLEGK([PEG2′-PEG2′-γGlu-Lauroyl])AA[αMeK]EFIK([PEG2′-PEG2′-γGlu-Lauroyl])FVVEGG-NH2 [SEQ ID NO: 440] . Is its cAMP Primary assay EC50, n2 below 0.2 nM?
Ans. True

Qu. Here's an entry: H[Aib]EGS[αMeF]TSDK([PEG2′-PEG2′-γGlu-Lauroyl])SSYLEK([PEG2′-PEG2′-γGlu-Lauroyl])EAA[αMeK]EFIAFK([PEG2′-PEG2′-γGlu-Lauroyl])VEGG-NH2 [SEQ ID NO: 471] . Is its cAMP Primary assay EC50, n2 below 0.2 nM?
Ans. False

Qu. Here's an entry: H[Aib]EGS[αMeF]TSDVSK([PEG2′-PEG2′-γGlu-Lauroyl])YLEGEK([PEG2′-PEG2′-γGlu-Lauroyl])A[αMeK]EFIAK([PEG2′-PEG2′-γGlu-Lauroyl])VVEGG-NH2 [SEQ ID NO: 461] . Is its cAMP Primary assay EC50, n2 below 0.2 nM?
Ans. True

Qu. Here's an entry: H[Aib]EGS[αMeF]TSDK([PEG2′-PEG2′-γGlu-Lauroyl])SSYLEK([PEG2′-PEG2′-γGlu-Lauroyl])EAA[αMeK]EFIAK([PEG2′-PEG2′-γGlu-Lauroyl])VVEGG-NH2 [SEQ ID NO: 455] . Is its cAMP Primary assay EC50, n2 below 0.2 nM?
Ans. True

Qu. Here's an entry: H[Aib]EGS[αMeF]TSDVSK([PEG2′-PEG2′-γGlu-Lauroyl])YLEGEK([PEG2′-PEG2′-γGlu-Lauroyl])A[αMeK]EFIAFK([PEG2′-PEG2′-γGlu-Lauroyl])VEGG-NH2 [SEQ ID NO: 477] . Is its cAMP Primary assay EC50, n2 below 0.2 nM?
Ans. False

Qu. Here's an entry: H[Aib]EGS[αMeF]TSDV[αMeS]SK([PEG2′-PEG2′-γGlu-Lauroyl])LEK([PEG2′-PEG2′-γGlu-Lauroyl])EAA[αMeK]EFIK([PEG2′-PEG2′-γGlu-Lauroyl])FVVEGG-NH2 [SEQ ID NO: 447] . Is its cAMP Primary assay EC50, n2 below 0.2 nM?
Ans. True

Qu. Here's an entry: H[Aib]EGS[αMeF]TSDV[αMeS]SYK([PEG2′-PEG2′-γGlu-Lauroyl])EGEK([PEG2′-PEG2′-γGlu-Lauroyl])A[αMeK]EFIAK([PEG2′-PEG2′-γGlu-Lauroyl])VVEGG-NH2 [SEQ ID NO: 469] . Is its cAMP Primary assay EC50, n2 below 0.2 nM?
Ans. True
